Give IC50 for every item shown.
- MEASUREMENT_TARGET: UniProt Q84406
- Sequence (Q84406 whole entry): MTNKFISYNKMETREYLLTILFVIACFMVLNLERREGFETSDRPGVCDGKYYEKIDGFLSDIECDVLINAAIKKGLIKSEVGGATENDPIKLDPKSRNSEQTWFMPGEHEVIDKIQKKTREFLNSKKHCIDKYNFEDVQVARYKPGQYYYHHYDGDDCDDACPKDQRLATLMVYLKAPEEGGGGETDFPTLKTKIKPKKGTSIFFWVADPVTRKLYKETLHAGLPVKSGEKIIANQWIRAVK
- ASSAY_SUMMARY: Inhibition of N-terminal His6-tagged recombinant Paramecium bursaria chlorella virus 1 CPH expressed in Escherichia coli Rosetta 2 (DE3) cells pre-incubated for 5 mins before 2OG as substrate and Fe2 as co-factor addition in presence of L-ascorbate and measured after 5 mins MALDI TOF MS analysis

Challenge: Return reported IC50; argument: O=C(O)CC(=O)C(=O)O [OXALOACETATE]
Response given: > 1000 µM

Challenge: Any idea what its IC50 is? The compound is N[C@@H](CCC(=O)O)C(=O)O
Response given: > 1000 µM

Challenge: Bench note: what IC50 did O=C(O)/C=C/C(=O)O show?
Response given: > 1000 µM

Challenge: Quick check: IC50 of O=C(O)/C=C(/CC(=O)O)C(=O)O ?
Response given: > 1000 µM

Challenge: Query: IC50; subject: CN(C)NC(=O)CCC(=O)O
Response given: > 100 µM

Challenge: May I ask what IC50 has been recorded for O=C(O)CC[C@H](O)C(=O)O ?
Response given: > 500 µM

Challenge: // query IC50 value for entry Cc1ccsc1C(NC(=O)c1ccccc1)c1cc(Cl)c2cccnc2c1O (stereo unspecified)
Response given: > 100 µM

Challenge: GET /values?readout=IC50&item= CC(=O)C(=O)O [PYRUVATE]
Response given: > 1000 µM

Challenge: Please give the measured IC50 for this compound: O=C(O)CNC(=O)c1ncc(-c2cccc(Cl)c2)cc1O
Response given: < 1 µM

Challenge: Reported IC50, compound CCCCCCCCOC(=O)c1ccc(O)c2ncccc12 : ____
Response given: > 100 µM

Challenge: Which IC50 is listed for O=C(O)CC(O)(CC(=O)O)C(=O)O ?
Response given: 213 µM

Challenge: Recorded IC50 for O=C(O)CC[C@@H](O)C(=O)O , please?
Response given: > 500 µM

Challenge: Give its IC50 value. Item: O=C(O)CCNc1cc(N2CCc3ccccc3CC2)nc(-c2ccccn2)n1
Response given: 15.9 µM

Challenge: Recorded IC50 of CC(C)(C)OC(=O)c1ccc(-n2[nH]cc(-n3ccnn3)c2=O)nc1 , please.
Response given: 2.5 µM

Challenge: Could you share which IC50 value was measured for O=C(O)C[C@H](O)C(=O)O ?
Response given: > 1000 µM

Challenge: Look up IC50: O=C(O)CCC(=O)O
Response given: > 1000 µM
